This listing pairs molecules with measured pKi.
target: D(2) dopamine receptor (Rattus norvegicus); test: Inhibition of [3H]spiperone binding to Dopamine receptor D2-like in rat caudate-putamen membrane
Please keep in mind that pKi is minus log10 of the molar concentration; only the number is needed.

# MOLECULE, pKi
records = [
    ("O=C(NCCCCN1CCN2c3ccccc3CC[C@@H]2C1)c1ccc2ccccc2c1", 6.23),
]

Query: Fill in: pKi of O=C(NCCCCN1CCN2c3ccccc3CC[C@H]2C1)c1ccc2ccccc2c1 is ___
Response: 6.74

###

molecular target: D(3) dopamine receptor (Rattus norvegicus, UniProt P19020)
Sequence (P19020 whole entry): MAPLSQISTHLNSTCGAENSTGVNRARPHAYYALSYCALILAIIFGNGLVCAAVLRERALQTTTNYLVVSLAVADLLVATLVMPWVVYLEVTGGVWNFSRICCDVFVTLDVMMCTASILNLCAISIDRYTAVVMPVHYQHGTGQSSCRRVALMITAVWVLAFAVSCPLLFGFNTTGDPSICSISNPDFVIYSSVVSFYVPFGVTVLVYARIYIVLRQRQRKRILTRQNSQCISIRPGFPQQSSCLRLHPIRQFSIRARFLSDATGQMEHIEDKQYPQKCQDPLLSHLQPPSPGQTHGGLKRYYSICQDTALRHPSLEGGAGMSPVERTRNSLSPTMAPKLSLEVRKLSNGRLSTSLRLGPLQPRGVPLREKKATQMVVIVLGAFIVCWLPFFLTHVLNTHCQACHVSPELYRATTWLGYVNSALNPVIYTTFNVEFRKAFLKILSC
PARAMETER: pKi
Please keep in mind that pKi is minus log10 of the molar concentration; only the number is needed.

The cases that follow already have their pKi on record.
# COMPOUND, MEASUREMENT_TARGET, pKi
data = [
    ("COc1cccc2c1CC[C@@H]1CN(CCCCNC(=O)c3ccc4ccccc4c3)CCN21", "D(3) dopamine receptor (Rattus norvegicus, UniProt P19020)", 8.08),
    ("COc1ccc2c(c1)CC[C@@H]1CN(CC[C@H]3CC[C@H](NC(=O)c4ccc5ccccc5c4)CC3)CCN21", "D(3) dopamine receptor (Rattus norvegicus, UniProt P19020)", 8.24),
]

Attention now turns to another entry.
Query: Fill in: pKi of COc1ccc2c(c1)CC[C@H]1CN(CCC3CCC(NC(=O)c4ccc5ccccc5c4)CC3)CCN21 (stereo partly drawn) is ___
Response: 8.00

###

target: D(2) dopamine receptor (Rattus norvegicus); assay: Inhibition of [3H]spiperone binding to Dopamine receptor D2-like in rat caudate-putamen membrane
PARAMETER: Ki (nM)
Write it as a number; the unit nM goes unstated.

# MOLECULE, RECORDED_RESULT
data = [
    ("COc1ccc2c(c1)N1CCN(CCCCNC(=O)c3ccc4ccccc4c3)C[C@H]1CC2", 1720),
]

Attention now turns to another entry.
Query: Return Ki measured with D(2) dopamine receptor (Rattus norvegicus) given this molecule: O=C(CCCN1CCN2c3ccccc3CCC2C1)c1ccc(F)cc1 (centres undefined)
Response: 243

###

This listing pairs molecules with measured pKi.
target: D(2) dopamine receptor (Rattus norvegicus, UniProt P61169); test: Inhibition of [3H]spiperone binding to Dopamine receptor D2-like in rat caudate-putamen membrane
Sequence (P61169 whole entry): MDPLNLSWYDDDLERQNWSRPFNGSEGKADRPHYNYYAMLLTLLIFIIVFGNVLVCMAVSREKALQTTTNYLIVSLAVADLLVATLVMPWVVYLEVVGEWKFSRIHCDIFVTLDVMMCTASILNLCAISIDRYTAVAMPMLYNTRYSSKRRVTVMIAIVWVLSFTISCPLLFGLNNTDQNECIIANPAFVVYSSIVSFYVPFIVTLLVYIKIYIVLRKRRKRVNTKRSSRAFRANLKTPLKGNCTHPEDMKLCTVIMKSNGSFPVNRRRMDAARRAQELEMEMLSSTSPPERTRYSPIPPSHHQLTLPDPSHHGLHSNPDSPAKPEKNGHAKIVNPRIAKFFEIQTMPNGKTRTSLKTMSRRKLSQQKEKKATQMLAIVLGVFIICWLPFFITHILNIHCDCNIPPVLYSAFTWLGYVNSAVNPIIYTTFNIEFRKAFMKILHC
Please keep in mind that pKi is minus log10 of the molar concentration; only the number is needed.

The cases that follow already have their pKi on record.
# MOLECULE, pKi
records = [
    ("COc1cccc2c1CC[C@@H]1CN(CCCCNC(=O)c3ccc4ccccc4c3)CCN21", 6.19),
    ("COc1cccc2c1CC[C@H]1CN(CCCCNC(=O)c3ccc4ccccc4c3)CCN21", 6.18),
    ("COc1ccc2c(c1)N1CCN(CCCCNC(=O)c3ccc4ccccc4c3)C[C@@H]1CC2", 6.00),
]

Query: Fill in: pKi of COc1cccc2c1N1CCN(CCCCNC(=O)c3ccc4ccccc4c3)C[C@@H]1CC2 is ___
Response: 7.06

Query: Fill in: pKi of O=C(NCCCCN1CCN2c3ccccc3CCC2C1)c1ccc2ccccc2c1 (configuration not stated) is ___
Response: 5.80

Query: Fill in: pKi of COc1cccc2c1N1CCN(CCCCNC(=O)c3ccc4ccccc4c3)C[C@H]1CC2 is ___
Response: 6.51

###

target: D(2) dopamine receptor (Rattus norvegicus); test: Inhibition of [3H]spiperone binding to Dopamine receptor D2-like in rat caudate-putamen membrane
pKi: −log10 of the molar value.
This listing pairs compounds with measured pKi.

The cases that follow already have their pKi on record.
# COMPOUND, PARAMETER, RECORDED_RESULT
records = [
    ("COc1ccc2c(c1)CC[C@H]1CN(CCN3CCC(NC(=O)c4ccc5ccccc5c4)CC3)CCN21", "pKi", "< 4.60"),
    ("COc1ccc2c(c1)CC[C@@H]1CN(CCN3CCC(NC(=O)c4ccc5ccccc5c4)CC3)CCN21", "pKi", "< 4.30"),
    ("COc1ccc2c(c1)CC[C@@H]1CN(CC[C@H]3CC[C@H](NC(=O)c4ccc5ccccc5c4)CC3)CCN21", "pKi", "< 5.00"),
    ("COc1ccc2c(c1)CC[C@H]1CN(CCC3CCC(NC(=O)c4ccc5ccccc5c4)CC3)CCN21 (stereo partly specified)", "pKi", "< 5.00"),
    ("COc1ccc2c(c1)CC[C@@H]1CN(CCCCNC(=O)c3ccc4ccccc4c3)CCN21", "pKi", "< 4.00"),
]

Attention now turns to another entry.
Query: Return pKi measured with D(2) dopamine receptor (Rattus norvegicus) given this compound: COc1ccc2c(c1)CC[C@H]1CN(CCCCNC(=O)c3ccc4ccccc4c3)CCN21
Response: < 4.30
